assay: Half-life at initial concentration of 5*10e-5 M in CEM cell extract; format: ADME, CCRF-CEM; settings: human
Measure: half-life (h)

COC(=O)[C@H](C)NP(=O)(OC[C@H]1O[C@@H](n2cc(C)c(=O)[nH]c2=O)C[C@@H]1N=[N+]=[N-])Oc1ccccc1 (some centres undefined) ... 2.5

(a) CC(=O)OCCNP(=O)(OCC1OC(n2cc(C)c(=O)[nH]c2=O)CC1N=[N+]=[N-])Oc1ccccc1 (centres undefined)
(b) COC(=O)CNP(=O)(OCC1OC(n2cc(C)c(=O)[nH]c2=O)CC1N=[N+]=[N-])Oc1ccccc1 (centres undefined)
When their half-life values are compared, which is larger, a or b ? Indicate your choice by writing its label.
b
